Where do the numbers come from? From patent US20210255193A1.

# subject-of-test: ABCE1 ATP-binding cassette sub-family E member 1 (Homo sapiens)
# Construct: isoTOP-ABPP experiments performed in cell lysates (in vitro); endogenous in cells; host or cells: soluble proteome of human cancer cell lines (MDA-MB-231, Ramos, Jurkat)
# assay-method-text: competitive isoTOP-ABPP
# condition-details: 50 uM, in vitro, sol, 231
Measured isoTOP-ABPP ratio (R) at liganded lysine P61221_K191 of individual entries
measurement-label: isoTOP-ABPP ratio (R) at liganded lysine P61221_K191

- compound: "O=C(Oc1ccc([N+](=O)[O-])cc1[N+](=O)[O-])c1ccc2ccccc2n1 [fragment 35]"
  observed-value: 1.1
- compound: "O=C(Oc1ccc([N+](=O)[O-])cc1[N+](=O)[O-])c1ccccc1Nc1cccc(C(F)(F)F)c1 [fragment 40]"
  observed-value: 0.9
- compound: "O=C(Oc1ccc([N+](=O)[O-])cc1[N+](=O)[O-])C(c1ccccc1)(c1ccccc1)c1ccccc1 [fragment 42, 2,4-Dinitrophenyl 2,2,2-triphenylacetate]"
  observed-value: 1.0
- compound: "CC(C)(C)OC(=O)NCCCC(=O)Oc1ccc([N+](=O)[O-])cc1[N+](=O)[O-] [fragment 41]"
  observed-value: 1.2
- compound: "O=C(Oc1ccc([N+](=O)[O-])cc1[N+](=O)[O-])c1ccc(-c2ccccc2)cc1 [fragment 37]"
  observed-value: 0.9
- compound: "O=C(Oc1ccc([N+](=O)[O-])cc1[N+](=O)[O-])C1CCN(C(=O)OCc2ccccc2)CC1 [fragment 34]"
  observed-value: 1.0
- compound: "CC(=O)Oc1ccc([N+](=O)[O-])cc1[N+](=O)[O-] [fragment 43, 2,4-Dinitrophenyl acetate]"
  observed-value: 1.3
- compound: "O=C(CCc1coc2cc(F)ccc2c1=O)Oc1ccc([N+](=O)[O-])cc1[N+](=O)[O-] [fragment 36]"
  observed-value: 1.0
- compound: "O=C(Oc1ccc([N+](=O)[O-])cc1[N+](=O)[O-])c1ccc(Oc2ccccc2)cc1 [fragment 39, 2,4-Dinitrophenyl 4-phenoxybenzoate]"
  observed-value: 0.8

---

# subject-of-test: POLR2L DNA-directed RNA polymerases I, II, and III subunit (Homo sapiens, UniProt P62875)
# Construct: isoTOP-ABPP experiments performed in cell lysates (in vitro); endogenous in cells; host or cells: soluble proteome of human cancer cell lines (MDA-MB-231, Ramos, Jurkat)
# assay-method-text: competitive isoTOP-ABPP
# Assay type: binding
# condition-details: 50 uM, 231 sol, in vitro
isoTOP-ABPP reactivity ratio at lysine P62875_K67: recorded values
measurement-label: isoTOP-ABPP reactivity ratio at lysine P62875_K67

- compound: "O=C(Oc1ccc([N+](=O)[O-])cc1[N+](=O)[O-])C(c1ccccc1)c1ccccc1 [fragment 30, 2,4-Dinitrophenyl 2,2-diphenylacetate]"
  observed-value: 1.8
- compound: "O=C(Oc1ccc([N+](=O)[O-])cc1[N+](=O)[O-])c1cc(C(F)(F)F)cc(C(F)(F)F)c1 [fragment 31]"
  observed-value: 0.9
- compound: "O=C(Oc1c(F)c(F)c(F)c(F)c1F)c1ccc2ccccc2n1 [fragment 25]"
  observed-value: 1.0
- compound: "CCn1cc(C(=O)Oc2c(F)c(F)c(F)c(F)c2F)c(=O)c2ccc(C)nc21 [fragment 28]"
  observed-value: 1.0

---

# subject-of-test: NPEPPS Puromycin-sensitive aminopeptidase (Homo sapiens)
# Construct: isoTOP-ABPP experiments performed in cell lysates (in vitro); endogenous in cells; host or cells: soluble proteome of human cancer cell lines (MDA-MB-231, Ramos, Jurkat)
# Sequence (P55786 whole entry): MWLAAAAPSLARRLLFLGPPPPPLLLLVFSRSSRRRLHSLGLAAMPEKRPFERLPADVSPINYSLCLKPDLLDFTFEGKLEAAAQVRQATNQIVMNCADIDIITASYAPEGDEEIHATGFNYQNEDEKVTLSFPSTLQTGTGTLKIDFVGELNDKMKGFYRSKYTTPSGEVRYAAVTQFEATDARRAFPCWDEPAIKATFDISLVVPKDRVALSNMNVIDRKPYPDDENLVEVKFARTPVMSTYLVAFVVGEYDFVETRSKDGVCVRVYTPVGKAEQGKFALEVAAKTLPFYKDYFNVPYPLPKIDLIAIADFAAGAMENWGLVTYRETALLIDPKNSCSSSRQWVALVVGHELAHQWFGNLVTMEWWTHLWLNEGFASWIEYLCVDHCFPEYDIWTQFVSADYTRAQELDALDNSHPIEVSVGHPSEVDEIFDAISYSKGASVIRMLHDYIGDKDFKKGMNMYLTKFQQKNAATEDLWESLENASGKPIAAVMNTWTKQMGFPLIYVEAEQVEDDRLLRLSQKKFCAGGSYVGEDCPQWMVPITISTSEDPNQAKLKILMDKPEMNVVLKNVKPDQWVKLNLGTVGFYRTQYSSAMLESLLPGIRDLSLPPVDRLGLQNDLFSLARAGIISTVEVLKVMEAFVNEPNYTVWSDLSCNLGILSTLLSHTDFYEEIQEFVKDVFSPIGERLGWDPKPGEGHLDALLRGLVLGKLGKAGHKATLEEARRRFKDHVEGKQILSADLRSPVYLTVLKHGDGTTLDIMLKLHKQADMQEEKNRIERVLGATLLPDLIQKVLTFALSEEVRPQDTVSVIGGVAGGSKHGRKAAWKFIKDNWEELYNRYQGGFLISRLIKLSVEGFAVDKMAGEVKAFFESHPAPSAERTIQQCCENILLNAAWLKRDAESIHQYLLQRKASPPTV
# assay-method-text: competitive isoTOP-ABPP
# Format: binding
# condition-details: P55786_K712; 50 uM, 231 sol, in vitro
# key: entry, value: R value (DMSO/fragment) for probe 1 labeling
measurement-label: R value (DMSO/fragment) for probe 1 labeling

- compound: "O=C(Oc1c(F)c(F)c(F)c(F)c1F)c1cc(C(F)(F)F)cc(C(F)(F)F)c1"
  observed-value: 0.9
- compound: "COc1cc(CCC(=O)Oc2c(F)c(F)c(F)c(F)c2F)cc(OC)c1OC"
  observed-value: 1.2
- compound: "O=C(Oc1c(F)c(F)c(F)c(F)c1F)C(c1ccccc1)c1ccccc1 [fragment 20, Pentafluorophenyl 2,2-diphenylacetate]"
  observed-value: 0.9
- compound: "Cn1cc(CC(=O)Oc2c(F)c(F)c(F)c(F)c2F)c2ccccc21"
  observed-value: 1.3
- compound: "O=C(CCc1cn(-c2ccccc2)nc1-c1ccccc1)Oc1c(F)c(F)c(F)c(F)c1F"
  observed-value: 1.0

---

Below, each of the molecules is paired with its reported isoTOP-ABPP reactivity ratio at lysine Q13561_K175 value.
# subject-of-test: DCTN2 Dynactin subunit 2 (Homo sapiens)
# Construct: isoTOP-ABPP experiments performed in cell lysates (in vitro); endogenous in cells; host or cells: soluble proteome of human cancer cell lines (MDA-MB-231, Ramos, Jurkat)
# Sequence (Q13561 whole entry): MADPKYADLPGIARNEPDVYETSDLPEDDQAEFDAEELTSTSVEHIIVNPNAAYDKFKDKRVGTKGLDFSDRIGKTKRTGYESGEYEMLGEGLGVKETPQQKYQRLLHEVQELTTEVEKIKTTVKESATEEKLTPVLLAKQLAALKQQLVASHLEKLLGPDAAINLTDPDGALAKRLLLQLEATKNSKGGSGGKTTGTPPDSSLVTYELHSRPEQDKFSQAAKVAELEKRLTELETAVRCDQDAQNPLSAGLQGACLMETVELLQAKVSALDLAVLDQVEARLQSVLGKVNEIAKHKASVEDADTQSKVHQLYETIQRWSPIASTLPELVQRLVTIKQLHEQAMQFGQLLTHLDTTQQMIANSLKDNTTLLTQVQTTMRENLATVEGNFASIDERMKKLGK
# assay-method-text: competitive isoTOP-ABPP
# Format: binding
# condition-details: 50 uM, 231 sol, in vitro
measurement-label: isoTOP-ABPP reactivity ratio at lysine Q13561_K175

- molecule: "O=C(CCc1cn(-c2ccccc2)nc1-c1ccccc1)Oc1ccc([N+](=O)[O-])cc1[N+](=O)[O-]"
  observed-value: 1.3
- molecule: "O=C(Oc1c(F)c(F)c(F)c(F)c1F)C1CCN(C(=O)OCc2ccccc2)CC1"
  observed-value: 1.3
- molecule: "COc1cc(CCC(=O)Oc2ccc([N+](=O)[O-])cc2[N+](=O)[O-])cc(OC)c1OC"
  observed-value: 1.6
- molecule: "O=C(Oc1ccc([N+](=O)[O-])cc1[N+](=O)[O-])C(c1ccccc1)c1ccccc1 [fragment 30, 2,4-Dinitrophenyl 2,2-diphenylacetate]"
  observed-value: 3.4
- molecule: "Cn1cc(CC(=O)Oc2ccc([N+](=O)[O-])cc2[N+](=O)[O-])c2ccccc21"
  observed-value: 4.4
- molecule: "O=C(CN1C(=O)c2ccccc2C1=O)Oc1c(F)c(F)c(F)c(F)c1F"
  observed-value: 1.2
- molecule: "O=C(CCc1coc2cc(F)ccc2c1=O)Oc1c(F)c(F)c(F)c(F)c1F"
  observed-value: 1.6
- molecule: "O=C(Oc1c(F)c(F)c(F)c(F)c1F)c1ccc2ccccc2n1"
  observed-value: 1.1
- molecule: "O=C(Oc1ccc([N+](=O)[O-])cc1[N+](=O)[O-])c1cc(C(F)(F)F)cc(C(F)(F)F)c1"
  observed-value: 1.0

---

# subject-of-test: GBAS Protein NipSnap homolog 2 (Homo sapiens, UniProt O75323)
# Construct: isoTOP-ABPP experiments performed in cell lysates (in vitro); endogenous in cells; host or cells: MDA-MB-231 soluble lysate
# Sequence (O75323 24-286): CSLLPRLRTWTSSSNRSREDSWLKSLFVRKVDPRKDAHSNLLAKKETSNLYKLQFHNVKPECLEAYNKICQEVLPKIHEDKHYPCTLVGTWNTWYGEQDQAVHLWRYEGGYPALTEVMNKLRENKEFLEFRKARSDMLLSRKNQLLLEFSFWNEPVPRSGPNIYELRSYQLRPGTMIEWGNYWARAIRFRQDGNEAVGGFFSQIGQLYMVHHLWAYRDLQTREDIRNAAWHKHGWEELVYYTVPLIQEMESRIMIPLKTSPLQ
# assay-method-text: competitive isoTOP-ABPP
# Type: binding
# condition-details: 50 uM, 231 sol, in vitro
Reported isoTOP-ABPP reactivity ratio at lysine O75323_K75 is given for each of the following compounds.
measurement-label: isoTOP-ABPP reactivity ratio at lysine O75323_K75

- compound: "COc1cc(CCC(=O)Oc2ccc([N+](=O)[O-])cc2[N+](=O)[O-])cc(OC)c1OC"
  observed-value: 3.0
- compound: "O=C(Oc1c(F)c(F)c(F)c(F)c1F)C1CCN(C(=O)OCc2ccccc2)CC1"
  observed-value: 1.0
- compound: "O=C(Oc1c(F)c(F)c(F)c(F)c1F)c1ccc2ccccc2n1"
  observed-value: 1.4
- compound: "O=C(CCc1coc2cc(F)ccc2c1=O)Oc1c(F)c(F)c(F)c(F)c1F"
  observed-value: 4.2
- compound: "O=C(Oc1ccc([N+](=O)[O-])cc1[N+](=O)[O-])c1cc(C(F)(F)F)cc(C(F)(F)F)c1"
  observed-value: 0.8
- compound: "CCn1cc(C(=O)Oc2c(F)c(F)c(F)c(F)c2F)c(=O)c2ccc(C)nc21"
  observed-value: 1.0
- compound: "O=C(Oc1ccc([N+](=O)[O-])cc1[N+](=O)[O-])C(c1ccccc1)c1ccccc1 [fragment 30, 2,4-Dinitrophenyl 2,2-diphenylacetate]"
  observed-value: 1.1
- compound: "O=C(CCc1cn(-c2ccccc2)nc1-c1ccccc1)Oc1ccc([N+](=O)[O-])cc1[N+](=O)[O-]"
  observed-value: 1.0
- compound: "O=C(CN1C(=O)c2ccccc2C1=O)Oc1c(F)c(F)c(F)c(F)c1F"
  observed-value: 20.0

---

Reported isoTOP-ABPP reactivity ratio at lysine P55263_K88 is given for each of the following compounds.
# subject-of-test: ADK Adenosine kinase (Homo sapiens)
# Construct: isoTOP-ABPP experiments performed in cell lysates (in vitro); endogenous in cells; host or cells: soluble proteome of human cancer cell lines (MDA-MB-231, Ramos, Jurkat)
# Sequence (P55263 whole entry): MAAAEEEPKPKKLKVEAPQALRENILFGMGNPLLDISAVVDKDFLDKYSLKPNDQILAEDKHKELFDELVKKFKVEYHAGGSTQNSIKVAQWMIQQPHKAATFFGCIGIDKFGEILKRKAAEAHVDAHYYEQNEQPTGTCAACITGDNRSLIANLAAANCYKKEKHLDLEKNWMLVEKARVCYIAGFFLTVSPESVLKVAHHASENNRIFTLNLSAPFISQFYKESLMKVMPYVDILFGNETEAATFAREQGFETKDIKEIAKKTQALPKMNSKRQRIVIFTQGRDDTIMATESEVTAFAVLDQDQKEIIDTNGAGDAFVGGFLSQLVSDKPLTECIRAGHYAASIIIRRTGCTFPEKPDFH
# assay-method-text: competitive isoTOP-ABPP
# Format: binding
# Parameters: key: R = MS1 peak area ratio, DMSO (heavy) / compound-treated (light)
# condition-details: 50 uM, 231 sol, in vitro
measurement-label: isoTOP-ABPP reactivity ratio at lysine P55263_K88

- compound: "O=C(Oc1c(F)c(F)c(F)c(F)c1F)c1ccc2ccccc2n1"
  observed-value: 0.8
- compound: "O=C(CCc1cn(-c2ccccc2)nc1-c1ccccc1)Oc1ccc([N+](=O)[O-])cc1[N+](=O)[O-]"
  observed-value: 1.0
- compound: "O=C(Oc1ccc([N+](=O)[O-])cc1[N+](=O)[O-])C(c1ccccc1)c1ccccc1 [fragment 30, 2,4-Dinitrophenyl 2,2-diphenylacetate]"
  observed-value: 0.8
- compound: "COc1cc(CCC(=O)Oc2ccc([N+](=O)[O-])cc2[N+](=O)[O-])cc(OC)c1OC"
  observed-value: 0.9
- compound: "CCn1cc(C(=O)Oc2c(F)c(F)c(F)c(F)c2F)c(=O)c2ccc(C)nc21"
  observed-value: 0.8
- compound: "O=C(CCc1coc2cc(F)ccc2c1=O)Oc1c(F)c(F)c(F)c(F)c1F"
  observed-value: 0.9
